# Tested on: pro-collagen
# ASSAY_OVERVIEW: Biosynthesis of collagen (pro-collagen ELISA) in fibroblasts
# Type: cell-based, Human
# SETUP_CONDITIONS: 0.01 μM, 48 hours; un-treated control = 100
Below, each entry is listed with its recorded Collagen biosynthesis.
PARAMETER: Collagen biosynthesis

INSERT INTO measurements (compound, measured_value) VALUES
  ('O=C(O[C@@H]1Cc2c(O)cc(O)cc2O[C@H]1c1ccc(O)c(O)c1)c1cc(O)c(O)c(O)c1 [CG, catechin gallate]', 118.5),
  ('O=C(O[C@@H]1Cc2c(O)cc(O)cc2O[C@H]1c1cc(O)c(O)c(O)c1)c1cc(O)c(O)c(O)c1 [GCG, gallocatechin gallate]', 138.3),
  ('O=C(O[C@@H]1Cc2c(O)cc(O)cc2O[C@@H]1c1cc(O)c(O)c(O)c1)c1cc(O)c(O)c(O)c1 [EGCG, epigallocatechin gallate]', 154.6),
  ('O=C(O[C@@H]1Cc2c(O)cc(O)cc2O[C@@H]1c1ccc(O)c(O)c1)c1cc(O)c(O)c(O)c1 [(−) ECG, epicatechin gallate]', 181.7);

Entry source: patent US10092493B2
